TESTED SYSTEM: human mAChR M1 (Homo sapiens, UniProt P11229)
Sequence (P11229 1-460): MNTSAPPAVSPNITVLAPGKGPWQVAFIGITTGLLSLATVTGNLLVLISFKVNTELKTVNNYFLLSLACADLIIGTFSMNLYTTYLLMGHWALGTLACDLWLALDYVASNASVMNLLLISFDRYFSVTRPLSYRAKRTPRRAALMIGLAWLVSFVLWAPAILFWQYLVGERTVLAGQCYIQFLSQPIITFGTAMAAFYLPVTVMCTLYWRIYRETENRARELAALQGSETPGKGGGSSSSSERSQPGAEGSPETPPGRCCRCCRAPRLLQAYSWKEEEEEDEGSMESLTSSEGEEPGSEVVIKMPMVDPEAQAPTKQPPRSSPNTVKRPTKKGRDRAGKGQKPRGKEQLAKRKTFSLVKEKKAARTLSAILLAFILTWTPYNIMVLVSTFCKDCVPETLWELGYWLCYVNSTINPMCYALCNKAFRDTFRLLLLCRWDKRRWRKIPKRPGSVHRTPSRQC
TEST NAME: mAChR M1 cell-based functional assay: calcium mobilization, positive allosteric modulator mode (increase in EC20 acetylcholine response)
CONDITION DESCRIPTION: Table 2; human M1; read-out: Human M1 Emax (%)
REPORTED METRIC: Emax (%)
The response must be a number in % with no trailing unit.

> print(dat)
                                   compound  numeric.value
1  CC1COCCC1NC(=O)c1cc(Cc2ccc(-c3nccs3)cc2)c2sccc2n1 (stereo not shown)           77.7

Item under review: C[C@@H]1COCC[C@@H]1NC(=O)c1cc(Cc2ccc(-c3cncs3)cc2)c2sccc2n1 . Reported Emax?
65.4

Query Cc1ccc(Cc2cc(C(=O)N[C@@H]3CCCNC3)nc3ccsc23)cn1 next
56.4

Query O=C(NCC1CCCO1)c1cc(Cc2ccc(-c3nccs3)cc2)c2sccc2n1 (stereo not shown) next
65.2
